molecular target: human AR (Homo sapiens, UniProt P10275); construct: expressed in transfected cells; host or cells: CV-1 cells (African green monkey kidney fibroblasts); test: co-transfection assay, hAR in CV-1 cells (MTV-LUC reporter); assay type: cell-based; settings: read-out: AR-wt Potency Antag
Sequence (P10275 whole entry): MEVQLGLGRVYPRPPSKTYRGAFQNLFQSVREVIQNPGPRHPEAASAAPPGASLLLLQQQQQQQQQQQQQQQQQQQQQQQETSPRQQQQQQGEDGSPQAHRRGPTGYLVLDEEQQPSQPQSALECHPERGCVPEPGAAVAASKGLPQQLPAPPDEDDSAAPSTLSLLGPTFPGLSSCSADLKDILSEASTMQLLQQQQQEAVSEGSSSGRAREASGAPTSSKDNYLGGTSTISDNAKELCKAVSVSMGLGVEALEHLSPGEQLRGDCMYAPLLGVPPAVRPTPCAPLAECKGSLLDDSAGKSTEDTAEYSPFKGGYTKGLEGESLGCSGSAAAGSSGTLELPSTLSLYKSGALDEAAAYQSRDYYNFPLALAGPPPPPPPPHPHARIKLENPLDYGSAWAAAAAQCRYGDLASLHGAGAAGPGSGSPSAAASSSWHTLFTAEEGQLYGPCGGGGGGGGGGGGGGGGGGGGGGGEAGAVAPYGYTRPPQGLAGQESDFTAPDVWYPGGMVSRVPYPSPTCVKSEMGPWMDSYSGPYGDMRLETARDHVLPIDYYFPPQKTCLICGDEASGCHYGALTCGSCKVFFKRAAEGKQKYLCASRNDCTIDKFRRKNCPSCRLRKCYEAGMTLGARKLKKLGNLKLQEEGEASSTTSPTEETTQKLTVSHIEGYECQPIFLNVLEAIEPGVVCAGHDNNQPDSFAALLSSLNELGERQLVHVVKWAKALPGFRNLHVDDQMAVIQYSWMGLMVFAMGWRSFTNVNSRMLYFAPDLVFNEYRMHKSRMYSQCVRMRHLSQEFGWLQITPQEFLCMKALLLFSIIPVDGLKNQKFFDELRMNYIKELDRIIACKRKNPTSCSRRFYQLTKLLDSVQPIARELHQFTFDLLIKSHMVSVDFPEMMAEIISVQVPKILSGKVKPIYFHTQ
observation_type: IC50

The recorded IC50 for `CC[C@@H]1COc2c(ccc3[nH]c(=O)cc(C(F)(F)F)c23)N1CC(F)(F)F` is > 10 µM

---

Target: ER (Homo sapiens, UniProt P03372)
Construct: expressed in transfected cells; host or cells: background cell substantially devoid of endogenous IRs (CV-1 described for the co-transfection assay)
Sequence (P03372 1-595): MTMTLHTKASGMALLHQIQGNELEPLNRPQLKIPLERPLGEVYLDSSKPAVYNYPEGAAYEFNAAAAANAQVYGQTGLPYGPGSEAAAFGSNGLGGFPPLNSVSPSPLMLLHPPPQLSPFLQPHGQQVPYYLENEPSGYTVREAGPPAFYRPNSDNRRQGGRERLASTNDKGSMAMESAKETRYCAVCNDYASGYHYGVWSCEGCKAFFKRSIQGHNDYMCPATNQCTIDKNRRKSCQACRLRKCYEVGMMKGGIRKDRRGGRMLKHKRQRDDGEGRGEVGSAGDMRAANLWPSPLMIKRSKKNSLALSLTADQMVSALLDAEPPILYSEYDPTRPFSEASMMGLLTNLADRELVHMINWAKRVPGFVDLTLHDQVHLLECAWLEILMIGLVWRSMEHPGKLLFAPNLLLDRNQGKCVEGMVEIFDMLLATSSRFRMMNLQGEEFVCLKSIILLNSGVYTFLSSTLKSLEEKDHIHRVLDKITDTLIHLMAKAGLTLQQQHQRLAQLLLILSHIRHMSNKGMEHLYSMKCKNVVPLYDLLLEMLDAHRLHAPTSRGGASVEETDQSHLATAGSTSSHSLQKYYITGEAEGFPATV
Assay: co-transfection assay, ER
Type: cell-based
Conditions: agonist mode; read-out: ER Potency Agon
Method: CV-1 cells (African green monkey kidney fibroblasts) were cultured in the presence of Dulbecco's Modified Eagle Medium (DMEM) supplemented with 10% charcoal resin-stripped fetal bovine serum (CH-FBS) then transferred to 96-well microtiter plates one day prior to transfection. Three to four replicates were used for each sample. […]
pEC50: −log10 of the molar value.
observation_type: pEC50

The recorded pEC50 for CC(C)(O)C(=O)Nc1ccc([N+](=O)[O-])c(C(F)(F)F)c1 [Flut, 2-hydroxyflutamide, reference compound] is < 5.00

---

target: human AR (Homo sapiens, UniProt P10275); construct: expressed in transfected cells; host or cells: CV-1 cells (African green monkey kidney fibroblasts); assay: co-transfection assay, hAR in CV-1 cells (MTV-LUC reporter); format: cell-based; details: read-out: AR-wt Potency Antag; antagonist mode; Table 2
Quick reference for IC50 among some compounds

CC(C)[C@@H]1COc2c(ccc3[nH]c(=O)cc(C(F)(F)F)c23)N1CC(F)(F)Cl : > 10 µM

Please find the next compound below.
# value of IC50, human AR (Homo sapiens, UniProt P10275), item `C=CCN1c2ccc3[nH]c(=O)cc(C(F)(F)F)c3c2OC[C@H]1CC` = > 10 µM

---

biological target: human AR (Homo sapiens, UniProt P10275); construct: expressed in transfected cells; host or cells: CV-1 cells (African green monkey kidney fibroblasts); test: co-transfection assay, hAR in CV-1 cells (MTV-LUC reporter); type: cell-based
observation_type: IC50

The recorded IC50 for `CC[C@@H]1COc2c(ccc3[nH]c(=O)cc(C(F)(F)F)c23)N1CC(F)(F)F` is > 10 µM

Provenance of the data: patent US7214690B2
